Cited source for all entries: paper PMC5298233

# test-target: UniProt O77389
# Sequence (O77389 whole entry): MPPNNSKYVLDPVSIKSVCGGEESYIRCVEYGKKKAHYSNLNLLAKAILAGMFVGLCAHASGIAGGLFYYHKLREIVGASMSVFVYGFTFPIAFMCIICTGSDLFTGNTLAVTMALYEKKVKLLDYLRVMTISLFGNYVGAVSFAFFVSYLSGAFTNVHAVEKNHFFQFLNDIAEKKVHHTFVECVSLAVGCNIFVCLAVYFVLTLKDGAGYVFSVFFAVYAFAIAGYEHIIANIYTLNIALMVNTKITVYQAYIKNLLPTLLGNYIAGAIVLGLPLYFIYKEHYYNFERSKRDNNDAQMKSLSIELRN
# test-details: cell-based
# conditions: IC50 (PfFNT / yeast; 24 h treatment), compound added 24 h before the assay, last 18 h at 4°C
measurement-type: pIC50
The quantity pIC50 is defined as the negative base-10 logarithm of the molar concentration.

Q. Fill blank: measured pIC50 of the molecule COc1ccc2c(c1)OC(O)(C(F)(F)C(F)(F)F)CC2=O (stereo not shown) is ____.
A. 7.82

---

# test-target: UniProtKB O77389
# test-details: cell-based
# conditions: IC50 (PfFNT / yeast), 20 min incubation with compound; 1 mM L-lactate
What pIC50 was measured for each of the following?
The quantity pIC50 is defined as the negative base-10 logarithm of the molar concentration.

Q. Fill blank: measured pIC50 of the compound O=C1CC(O)(C(F)(F)C(F)(F)F)Oc2cc(OCc3ccccc3)ccc21 (centres unmarked) [[15]] is ____.
A. 6.06

Q. Entry CC(C)Oc1ccc2c(c1)OC(O)(C(F)(F)C(F)(F)F)CC2=O (centres unmarked) [[14]] please
A. 6.40

Q. Entry COc1ccc2c(c1)OC(O)(C(F)(F)F)CC2=O (centres unmarked) [[8]] please
A. 5.96

Q. Entry COc1ccc2c(c1)OC(O)(C(F)(F)C(F)(F)C(F)(F)F)CC2=O (centres unmarked) [[10]] please
A. 6.60

Q. Entry O=C1CC(O)(C(F)(F)C(F)(F)F)Oc2cc(Cl)ccc21 (centres unmarked) [[12]] please
A. 6.92

Q. Entry CC(=O)C=C(O)C(F)(F)C(F)(F)F [Pharmacophore] please
A. 5.72

Q. Entry COc1ccc(C(=O)/C=C(\O)C(F)(F)C(F)(F)F)cc1 [BH-296] please
A. 6.85

Q. Entry COc1ccc2c(c1)OC(O)(C(F)(F)C(F)F)CC2=O (centres unmarked) [[9]] please
A. 6.44

Q. Entry O=C1CC(O)(C(F)F)Oc2ccccc21 (centres unmarked) [[7]] please
A. 3.55

Q. Entry COc1ccc2c(c1)OC(O)(C(F)(F)C(F)(F)F)C(C)C2=O (centres unmarked) [[5]] please
A. 3.84

Q. Entry O/N=C1\CC(O)(C(F)(F)F)Oc2ccc(Cl)cc21 (centres unmarked) [[6]] please
A. 3.50

Q. Entry O=C1CC(O)(C(F)(F)C(F)F)Oc2ccc(Cl)cc21 (centres unmarked) [[3]] please
A. 4.32

Q. Entry O=C1CC(O)(C(F)(F)C(F)(F)C(F)(F)C(F)(F)F)Oc2ccccc21 (centres unmarked) [[11]] please
A. 5.31

Q. Entry CCOc1ccc2c(c1)OC(O)(C(F)(F)C(F)(F)F)CC2=O (centres unmarked) [[13]] please
A. 6.62
